- TEST_TARGET: T1, human TMEM106B (human, UniProt Q9NUM4 2-274)
- T1 construct: Full-length, on transiently transfected HEK293 cells, or natively expressed on HeLa, U251 and A549 cells; also called huTMEM106B; huTMEM
- METHOD_DESCRIPTION: FACS A549, 10 ug/ml
Items are presented alongside their recorded MFI.
MEASURE: MFI

{"BINDER": "anti-TMEM106B antibody TM-18 (antibody, V domains shown) VH: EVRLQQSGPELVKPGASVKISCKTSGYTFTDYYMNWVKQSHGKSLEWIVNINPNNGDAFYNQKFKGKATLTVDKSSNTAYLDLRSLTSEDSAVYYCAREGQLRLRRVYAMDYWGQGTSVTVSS VL: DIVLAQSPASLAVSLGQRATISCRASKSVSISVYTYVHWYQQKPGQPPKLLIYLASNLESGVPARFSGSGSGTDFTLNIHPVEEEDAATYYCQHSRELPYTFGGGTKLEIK", "REPORTED": 5190}
{"BINDER": "anti-TMEM106B antibody TM-33 (antibody, V domains shown, mouse IgG from hybridoma) VH: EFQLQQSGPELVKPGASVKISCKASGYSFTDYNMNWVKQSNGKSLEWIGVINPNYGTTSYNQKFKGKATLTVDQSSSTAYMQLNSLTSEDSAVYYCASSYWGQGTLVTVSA VL: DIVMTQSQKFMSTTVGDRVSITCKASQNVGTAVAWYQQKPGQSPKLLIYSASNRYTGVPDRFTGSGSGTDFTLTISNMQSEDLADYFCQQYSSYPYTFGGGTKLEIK", "REPORTED": 514}
{"BINDER": "anti-TMEM106B antibody TM-4 (antibody, V domains shown) VH: EVQVQQSGPVLVKPGASVKMSCKASGYTFTDYYMNWVKQSHGKNLEWIGVINPYNGGTSYHQKFKGKATLTVDKSSSTAYMELNSLTSEDSAVYYCARAATVVAGFDYWGQGTTLTVSS VL: QAVVTQESALTTSPGETVTLTCRSSTGAVTTSNYANWVQEKPDHLFTGLIGGTNNRAPGVPARFSGSLIGDKAALTITGAQTEDEAIYFCVLWYSNHLVFGGGTKLTVL", "REPORTED": 443}

Taken from patent US20230303681A1.
